Taken from PubChem BioAssay (NCI).

System: SNB-75 CNS
Assay Procedure: NCI tumour cell line growth inhibition, 48 h
Measurement Label: TGI

>>> measurement("O=C(Nc1ccc(Br)cc1F)c1cc(Br)ccc1O")
"5.95 µM"
>>> measurement("Nc1ccc(N)c2c1C(=O)c1c(N)ccc(N)c1C2=O")
"> 77.7 µM"

Each of the following entries comes with a recorded value; kindly state TGI for each.
1. N#Cc1c2nc3ccccc3nc2n2ccc3ccccc3c12
2. CC1=NN(C(=O)Cc2ccccc2)C(=O)/C1=C\c1ccco1
3. O=C1NN(c2ccccc2)C(=O)C2C3c4ccccc4C(c4ccccc43)C12 (stereo not drawn)
4. CC(NC(=O)C(N)CC(=O)O)NC(=O)N1CCCC1 (stereo not drawn)
5. CNC1C(OC2C(OC3C(O)C(O)C(O)C(O)C3O)OC(C)C2(O)CO)OC(CO)C(O)C1O (stereo not drawn) (tested in a mixture with another compound)
6. S=C1SC(c2ccc(Cl)cc2)(c2ccc(Cl)cc2)c2ccccc21

1: > 100 µM; 2: > 100 µM; 3: > 100 µM; 4: > 100 µM; 5: > 100 µM; 6: > 100 µM

Each of the following entries comes with a recorded value; kindly state TGI for each.
1. Cc1nc(C)c(N2CCN(C#N)CC2)c(=O)[nH]1
2. COc1ccc(C(=O)O)c(Cc2ccc3ccccc3c2)c1
3. Cc1nn(-c2ccc(Br)cc2)c(C)c1CC(=O)c1cc(O)ccc1O
4. ClC[Si]12OCCN(CCO1)CCO2
5. CC(Oc1ccc2cc(C(=O)c3ccccc3)c(=O)oc2c1)C(=O)O (stereo not drawn)
6. CCCCP(CCCC)(CCCC)=C(C(=O)OC)C(C(=O)OC)=C1SC(C(=O)OC)=C(C(=O)OC)S1

> 100 µM
> 100 µM
31.1 µM
> 100 µM
> 100 µM
45.4 µM

Each of the following entries comes with a recorded value; kindly state TGI for each.
1. CC1(C)OC(=S)N(c2ccccc2)C12C=Cc1cc3ccccc3cc1O2 (stereo not drawn)
2. Cc1cc2[nH]c3c(C#N)c(-c4ccccc4)c(CN4CCOCC4)c(=O)n3c2cc1C
3. Nc1nc2c(c3cnccc13)C(c1cccc(Cl)c1)Cc1cnccc1-2 (stereo not drawn)
4. Cc1nc2cc(N)c(Cl)cc2[nH]1
5. CSc1ccc2c(cc1=O)[C@@H](NC(=O)c1ccc(F)cc1)CCc1cc(O)c(O)c(O)c1-2
6. COc1cc(/C=C(\C#N)c2ccccn2)cc(Br)c1O

> 100 µM
> 100 µM
17.8 µM
> 100 µM
> 100 µM
> 100 µM

----------
Tested on: CCRF-CEM leukemia
Assay Procedure: NCI tumour cell line growth inhibition, 48 h; in the data active = GI50 below about 0.43 µM; inactive = the rest
Parameter call: string, one of t = active, f = inactive

>>> qualitative_label("C=C1N(C)c2ccc(Cl)cc2C1(C)C")
"f"

Each compound tested received a call. Report the one for COc1ccc(CNc2nc(NCc3ccc(OC)cc3)c3n[nH]c(C(C)C)c3n2)cc1 . f

Each compound tested received a call. Report the one for CC(=O)Nc1sc2c(c1-c1nc3ccccc3s1)CNC2 . f

Each compound tested received a call. Report the one for S=C(N/N=C(/c1ccccc1)c1ccccn1)Nc1cccc(Cl)c1 . t

----------
System: UO-31 renal
Assay Procedure: NCI tumour cell line growth inhibition, 48 h
Measurement Label: TGI

>>> measurement("O=C1C(Cl)=C(Nc2cccc(O)c2)C(=O)N1c1cccc(Cl)c1Cl")
"> 100 µM"

Each of the following entries comes with a recorded value; kindly state TGI for each.
1. N=c1ccn2c(n1)O[C@@H]1[C@@H](O)[C@H](CO)O[C@@H]12
2. COC(=O)[C@@H]1C[C@]2(CC=C(C)C)c3ccccc3N(S(=O)(=O)c3ccccc3)[C@@H]2N1C(=O)OC

["20.8 µM", "> 100 µM"]

Each of the following entries comes with a recorded value; kindly state TGI for each.
1. O=C(Nc1ccc(Br)cc1F)c1cc(Br)ccc1O
2. N=c1oc2c(Cl)cc(Cl)cc2cc1C(=O)Nc1ccccn1
3. N/N=C(\C(=O)Nc1ccc([N+](=O)[O-])cc1)C(C1=Nc2cc([N+](=O)[O-])ccc2NC1)[N+](=O)[O-] (centres undefined)
4. CCCCP(CCCC)(CCCC)=C(C(=O)OC)C(C(=O)OC)=C1SC(C(=O)OC)=C(C(=O)OC)S1
5. O=C(O)c1cc(Sc2ccc([N+](=O)[O-])c(C(=O)O)c2)ccc1[N+](=O)[O-]

2.8 µM
> 100 µM
> 100 µM
51.4 µM
> 100 µM

Each of the following entries comes with a recorded value; kindly state TGI for each.
1. CCCCCCCC/C=C/CCCCCCCC1CC(O)C(=O)O1 (centres undefined)
2. COc1ccc(/C(C)=N/NC(N)=S)c(OC)c1
3. COC(=O)c1ccc(C2SCC(=O)N2NC(=O)C(O)c2ccccc2)cc1 (centres undefined)
4. COc1cc(-c2cc(CCC(=O)Nc3ccccc3[N+](=O)[O-])n(-c3ccc([N+](=O)[O-])cc3[N+](=O)[O-])n2)ccc1O

1. > 100 µM
2. > 100 µM
3. > 100 µM
4. > 100 µM

Each of the following entries comes with a recorded value; kindly state TGI for each.
1. CC(C)CC(=O)NS(=O)(=O)c1ccccc1
2. O=C(CSc1nnc(-c2ccc(N=Cc3ccc(Cl)cc3)cc2)o1)Nc1cccc(Cl)c1
3. CCCCCCCCCCCCP(=O)(O)OCC(N)C(=O)O (centres undefined)
4. O=c1[nH]c(=O)n(C2CC(O)C(CO)O2)cc1C#Cc1cc(F)cc(F)c1 (centres undefined)

1: > 100 µM; 2: > 100 µM; 3: 26 µM; 4: > 100 µM

Each of the following entries comes with a recorded value; kindly state TGI for each.
1. c1ccc2c(c1)C(=Nc1ccc(N=C3c4ccccc4-c4ccccc43)cc1)c1ccccc1-2
2. COC(=O)NN1C(C)=C(C(=O)OC)C2(CCOC2=O)C1(C)O (centres undefined)
3. CC1(C)OC(=O)C(=C2CC(c3ccccc3)c3ccccc32)C(=O)O1 (centres undefined)

["> 100 µM", "> 100 µM", "> 100 µM"]

Each of the following entries comes with a recorded value; kindly state TGI for each.
1. O=C1OC(c2ccccc2)N/C1=C\c1ccc2c(c1)OCO2 (centres undefined)
2. COc1ccc(CNc2nc(NCc3ccc(OC)cc3)c3n[nH]c(C(C)C)c3n2)cc1
3. CC(C)[C@@H]1CC[C@@H]2[C@@H]1[C@H](OC(=O)/C=C/c1ccccc1)[C@]1(C(C)C)C[C@@H](OC(=O)CO)[C@@]2(C)O1
4. O=C1O[C@H]2[C@@H]3OC(=O)c4cc(O)c(O)c(O)c4-c4c(cc(O)c(O)c4O)C(=O)OC[C@H]2O[C@@H](OC(=O)c2cc(O)c(O)c(O)c2)[C@@H]3OC(=O)c2cc(O)c(O)c3c2[C@@H]2C1=CC(=O)C(O)(O)C2(O)O3 (some centres undefined)
5. CC(=O)O[C@H]1[C@@H](N2CCN(C)CC2)C[C@H]2[C@@H]3CC=C4C[C@@H](N5CCCC5)CC[C@]4(C)[C@H]3CC[C@@]21C
6. O=C(/C(=C/c1cccs1)c1ccccc1)c1ccccc1
7. Nc1ccc(N)c2c1C(=O)c1c(N)ccc(N)c1C2=O

1: > 100 µM; 2: 15 µM; 3: 0.0857 µM; 4: > 100 µM; 5: > 100 µM; 6: > 100 µM; 7: > 100 µM

Each of the following entries comes with a recorded value; kindly state TGI for each.
1. CC(C)Oc1ccc(C(=O)N[C@H](CNC(=O)CN(C)C)Cc2ccc(-c3cn4cccc([C@H](C)O)c4n3)cc2)cc1Cl
2. CC(=O)NC(CCCCNC(=O)N(C)N=O)C(=O)NCc1ccccc1 (centres undefined)

1: 19.1 µM; 2: > 100 µM

Each of the following entries comes with a recorded value; kindly state TGI for each.
1. O=c1[nH]c(/C=C(\O)c2ccncc2)nc2ccccc12
2. CCNCCCCNCC

> 100 µM
> 3400 µM
